Form field: viability (one value per entry).
Experiment notes: growth inhibitors of H69AR lung tumor, primary screen, human, duplicate replicates (AID 580);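 note: 100% = mean luminescence of untreated wells and 0% = no signal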
Measurement parameters: H69AR lung tumor cells viability, ATP luminescence, 72 h; at 10 µM; active compounds read low
Report the value in % with no unit label.

Query string: Need viability, item COc1ccc(-c2nc(SC)n(S(=O)(=O)c3ccccc3)n2)cc1
Result string: 98.1

Query string: Which measured viability value corresponds to CC1=C(C(=O)Nc2ccccc2C)C2(CCCC2)C(C(N)=O)C(=O)N1 (stereo unspecified) ?
Result string: 90

----------
Experiment notes: growth suppression of yeast trafficking mutant, preliminary HTS, modulators of trafficking downstream of Golgi apparatus project, 1536-format plate, OD 615 nm (AID 637)
Measurement parameters: yeast transport mutant growth, absorbance 615 nm, 18 h; active compounds read high
Measure: inhibition (%)
# value in %; strip the unit string

As a guide, the following entries are already answered.
molecular_string=Cc1cc(C(=O)Nc2cc(C)n(Cc3ccc(Cl)cc3)n2)no1 number=-6.51
molecular_string=Cc1cc(NC(=O)c2ccccc2)ncc1NC(=O)c1ccco1 number=0.32
molecular_string=CCN(CC)CCOC(=O)C1(c2ccc(OC)c(OC)c2)CCCC1 number=1.45
molecular_string=CCOC(=O)c1c(C)[nH]c(C(=O)Cn2c(=O)c3c(ncn3CC)n(Cc3ccccc3)c2=O)c1C number=-2.73

Would you kindly look at the next entry?
Query string: // query inhibition value for entry CC(C)(C)n1ncc2c(=O)n(CC(=O)NCc3ccc(F)cc3)cnc21
Result string: -5.27

# credit: PubChem BioAssay
